# System: A549/ATCC NSCLC
# test: NCI-60 one-dose screen, 48 h
# settings: 10 µM
About 83,000 compounds went through this panel and 20% of them were active in at least one assay; those are over-represented in the sample as a whole. Active and inactive are the calls of the source. The calls were made as follows: active = growth percent below 10; inactive = the rest.
Your reply should match one of these outcome classes. 1 for active, -1 for inactive

Solved cases (2 shown):
1. O=C1c2cccc3cc([N+](=O)[O-])cc(c23)C(=O)N1CCN1CCCC1    1
2. CCC(C)(c1ccc(O)c(C)c1)c1ccc(O)c(C)c1    -1

Switching to the query record.
Prompt line: I would be grateful if you could indicate the recorded call for `N#C/C(=C/N1C(=O)/C(=C/c2ccc([N+](=O)[O-])cc2)SC1=S)c1nc2ccccc2s1` .
Response line: -1

---

Overview of recorded growth for various molecules
# Tested on: KM12 colon
# test: NCI-60 one-dose screen, 48 h (100 = growth as untreated, 0 = no growth, -100 = all killed)
# settings: 10 µM
This is part of a sample that, as a whole, favours compounds with a hit. Of some 83,000 tested, about 20% had one in any assay.
Answer format: numeric, % implied, no suffix.

Known growth results, listed for orientation:
1) CC1CCC2(C(=O)O)CCC3(C)C(=CCC4C5(C)CC(O)C(O)C(C)(CO)C5C(O)CC43C)C2C1C (stereo not given)    104
2) COc1cccc(C(c2cc3c(cc2O)OCO3)N2CCOCC2)c1OC (stereo not given)    108
3) O=S(=O)(c1cc(Cl)ccc1O)c1cc(Cl)ccc1O    98.1
4) CCC(C)(c1ccc(O)c(C)c1)c1ccc(O)c(C)c1    94.6
5) CN(C)c1ccc(/C=C/c2ccnc3ccccc23)cc1N    61.5
6) COc1cc(N)ccc1Nc1c2ccccc2nc2ccccc12    36.2
7) COc1ccc2c(c1)[nH]c1c(/C=C/c3ccccc3)nccc12    71.1
8) O=C1c2ccccc2CCC1(Br)Br    87.2
9) O=C(O)c1ccccc1.[Ag]    89.3

Now turn to the next molecule.
Prompt line: State its growth for this molecule: `CN(CC(=O)O)c1ccc(/C=C/c2ccnc3ccccc23)cc1`
Response line: 85.2

---

# Test system: M14 melanoma
# test: NCI-60 one-dose screen, 48 h (100 = growth as untreated, 0 = no growth, -100 = all killed)
# settings: 10 µM unless noted
The panel holds about 83,000 compounds, 20% with a hit somewhere; the sample as a whole holds those more often.
assay endpoint: growth (%)
Answer format: numeric, % implied, no suffix.

Known growth results, listed for orientation:
1. CN(CC(=O)O)c1ccc(/C=C/c2ccnc3ccccc23)cc1    90.3
2. Cn1ncc2cc3c(Nc4ccc(Cl)cc4)cccc3nc21    104

Now turn to the next compound.
Prompt line: State its growth for this compound: Cc1cc(C)c(N2C(=O)CC(Sc3ccccc3N)C2=O)c(C)c1 (stereo not drawn)
Response line: 60.3

---

# System: A498 renal
# test: NCI-60 one-dose screen, 48 h (100 = growth as untreated, 0 = no growth, -100 = all killed)
# settings: 10 µM
The panel holds about 83,000 compounds, 20% with a hit somewhere; the sample as a whole holds those more often.
assay endpoint: growth (%)
Answer format: numeric, % implied, no suffix.

Prompt line: Tell me growth of `CN(C)CCNc1cccc2sc3ccc(O)cc3c(=O)c12` when tested on A498 renal.
Response line: 92.5

Prompt line: Tell me growth of Cc1cc(C)c(N2C(=O)CC(Sc3ccccc3N)C2=O)c(C)c1 (centres undefined) when tested on A498 renal.
Response line: 54.2

Prompt line: Tell me growth of `N#CC(=C1C=CC(=NO)C=C1)c1ccccc1` when tested on A498 renal.
Response line: 48

Prompt line: Tell me growth of `O=Nc1ccc(Nc2ccccc2)cc1` when tested on A498 renal.
Response line: 87.2
